src = the supplement of paper PMC11061612

System: ALL-SIL (T-Lymphoblastic Leukemia)
Assay: combination Emax (second highest fraction inhibited in the dose matrix, 72 h); higher = more inhibition; extreme values may be limits of the assay
# maps each entry to its combination Emax
Lab note: jot down the number only; don't add units.

Sample records with combination Emax:
Molecule	Experimental value
CC(=O)c1c(C)c2cnc(Nc3ccc(N4CCNCC4)cn3)nc2n(C2CCCC2)c1=O [Palbociclib] + Cn1cnc2c(F)c(Nc3ccc(Br)cc3Cl)c(C(=O)NOCCO)cc21 [Selumetinib] (first compound max 10 µM, 7x7, partner max 10 µM)	0.38
CN(CCO)CC[C@H](CSc1ccccc1)Nc1ccc(S(=O)(=O)NC(=O)c2ccc(N3CCC([C@@H](O)c4ccccc4-c4ccc(Cl)cc4)CC3)cc2)cc1S(=O)(=O)C(F)(F)F [AZD4320] + Cn1cnc2c(F)c(Nc3ccc(Br)cc3Cl)c(C(=O)NOCCO)cc21 [Selumetinib] (first compound max 1 µM, 7x7, partner max 3 µM)	1

# evaluate next
Recorded result, CN(CCO)CC[C@H](CSc1ccccc1)Nc1ccc(S(=O)(=O)NC(=O)c2ccc(N3CCC([C@@H](O)c4ccccc4-c4ccc(Cl)cc4)CC3)cc2)cc1S(=O)(=O)C(F)(F)F [AZD4320] + C1CN(CCC1(C(=O)N[C@@H](CCO)C2=CC=C(C=C2)Cl)N)C3=NC=NC4=C3C=CN4 [Capivasertib] (first compound max 1 µM, 7x7, partner max 3 µM) , combination Emax: 1
